All values here come from PubChem BioAssay (NCI).

System: IGROV1 ovarian
Assay: NCI tumour cell line growth inhibition, 48 h; in the data active = GI50 below about 0.43 µM; inactive = the rest
*1 amine or outer side, *2 acyl side, *3 side chain or, on linkers, in order; H or OH if unused. Where a SMILES comes first, the peptide text is derived from it. Bridges are numbered along the chain shown (N, C = ends). Roman numbers before positions name the chains, in order. [ ]: non-standard residue; d: D form. Actinocin(9to1) = Cc1c2oc3c(C)ccc(C(=O)[*:1])c3nc-2c(C(=O)[*:2])c(N)c1=O; NMeV = CN[CH](C(=O)O)C(C)C; Sar = CNCC(=O)O
Labels: active, inactive

molecule	label_class
CCN1C(=O)N(CC)C2C1NN=c1s/c(=C\c3cccs3)c(=O)n12 (stereo not given)	active
Cc1c2oc3c(C)ccc(C(=O)OC(C)C4NC(=O)C(C(C)C)N(C)C(=O)CN(C)C(=O)C5CCCN5C(=O)C(C(C)C)NC4=O)c3nc-2c(C(=O)OC(C)C2NC(=O)C(C(C)C)N(C)C(=O)CN(C)C(=O)C3CCCN3C(=O)C(C(C)C)NC2=O)c(N)c1=O (stereo not given) (I: cyclo([Sar][NMeV]TVP) / II: cyclo([Sar][NMeV]TVP); linker I:3-II:3 via Actinocin(9to1); configuration not given here)	active
COc1ccc(C(C#N)=C2C=CC(=NO)C=C2)cc1	inactive
Cc1ccc2[nH]c3c(c2c1)N=c1ccccc1=NO3	inactive
COc1cc(-c2nn(-c3cccc(NC(=O)NCCNS(=O)(=O)c4ccc(Cl)cc4)c3)cc2-c2ccncc2)ccc1Cl	inactive
COc1cc(OC)cc(-c2nc3sccn3c2/C=N/N=C(N)N)c1	inactive
C=C1C(=O)O[C@H]2[C@H]1CC/C(Cn1cc(Cc3c[nH]c4ccccc34)nn1)=C\CC[C@@]1(C)O[C@@H]21	inactive
O=P(O)(O)OCC1OC(n2cnc3c(NCc4ccco4)ncnc32)C(O)C1O (stereo not given)	inactive
O=C1NCN(c2ccccc2)C12CCN(CCCC(c1ccc(F)cc1)c1ccc(F)cc1)CC2	inactive
O=C1CSC(c2ccc(-c3nc4ccccc4[nH]3)cc2)=N1	inactive
CCCCCCCN(CCCCCCC)C(=N)c1ccnc2ccccc12	inactive
Cc1ccc(-c2c(C#N)[n+](=O)c3cc(F)c(F)cc3n2[O-])cc1	inactive
O=c1cc(-c2ccccc2)oc2ccc(OC/C(=N/O)c3ccc(F)cc3)cc12	inactive
COc1cccc(OC(=O)c2ccc(C(F)(F)F)nc2Nc2c(C)cccc2Cl)c1	inactive
CCC#CC[C@H](O)C/C=C1/C(=O)C=C[C@@H]1C/C=C\CCCC(=O)OC	inactive

* * *

Test system: LOX IMVI melanoma
Assay: NCI tumour cell line growth inhibition, 48 h; in the data active = GI50 below about 0.43 µM; inactive = the rest
Labels: active, inactive

molecule	label_class
CC(C)=O.O=C([O-])C(F)(F)F.O=C([O-])C(F)(F)F.O=C([O-])C(F)(F)F.O=C([O-])C(F)(F)F.[Rh+2].[Rh+2]	inactive
COc1cccc(OC(=O)c2ccc(C(F)(F)F)nc2Nc2c(C)cccc2Cl)c1	inactive
COc1cccc(Sc2ccc([N+](=O)[O-])c3no[n+]([O-])c23)c1	inactive
O=C1Nc2ccccc2/C1=C\c1cccc(/C=C2/C(=O)Nc3ccccc32)n1	active
CCC[CH2][Sn]([CH2]CCC)([CH2]CCC)[O]C(=O)C(OC(C)=O)c1ccccc1 (centres undefined)	active
Cc1ccc(-c2c(C#N)[n+](=O)c3cc(F)c(F)cc3n2[O-])cc1	inactive
CCN1C(=O)N(CC)C2C1NN=c1s/c(=C\c3cccs3)c(=O)n12 (centres undefined)	active
COc1cc2c3c(n(CCCCNC(=O)OC(C)(C)C)c(=O)c2cc1OC)-c1cc2c(cc1C3=O)OCO2	inactive
O=P(O)(O)OCC1OC(n2cnc3c(NCc4ccco4)ncnc32)C(O)C1O (centres undefined)	active
